Below is a list of entries, each paired with its recorded residual activity value.
- TESTED SYSTEM: UniProt Q14680
- Sequence (Q14680 whole entry, looked up): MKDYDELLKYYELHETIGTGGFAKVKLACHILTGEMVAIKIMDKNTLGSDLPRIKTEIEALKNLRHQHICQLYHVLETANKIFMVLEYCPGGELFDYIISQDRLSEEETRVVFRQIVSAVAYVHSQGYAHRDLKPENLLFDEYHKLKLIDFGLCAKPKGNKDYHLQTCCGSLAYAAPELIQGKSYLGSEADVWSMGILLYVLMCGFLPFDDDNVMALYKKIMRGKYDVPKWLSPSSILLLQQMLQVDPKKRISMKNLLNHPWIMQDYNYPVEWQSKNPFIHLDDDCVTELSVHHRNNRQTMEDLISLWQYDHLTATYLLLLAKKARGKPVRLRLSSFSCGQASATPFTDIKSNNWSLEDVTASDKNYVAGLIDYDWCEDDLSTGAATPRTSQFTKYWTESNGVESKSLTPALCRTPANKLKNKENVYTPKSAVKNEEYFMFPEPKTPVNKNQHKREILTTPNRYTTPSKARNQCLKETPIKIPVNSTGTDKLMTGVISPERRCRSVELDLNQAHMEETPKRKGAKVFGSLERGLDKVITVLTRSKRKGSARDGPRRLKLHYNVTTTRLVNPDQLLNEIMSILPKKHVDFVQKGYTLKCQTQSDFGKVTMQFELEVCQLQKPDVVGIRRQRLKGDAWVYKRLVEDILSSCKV
- PROTOCOL NOTES: radiometric filter-binding kinase assay, Kinase HotSpot
- TEST SETTINGS: compound 0.5 µM; ATP 10 µM

COMPOUND STRING: CCOC(=O)c1c(C)[nH]c(/C=C2\C(=O)Nc3ccccc32)c1C
TESTED SYSTEM: UniProt Q14680
residual activity / %: 87.4

COMPOUND STRING: CCN(CC)CCNC(=O)c1c(C)[nH]c(/C=C2\C(=O)Nc3ccc(F)cc32)c1C
TESTED SYSTEM: UniProt Q14680
residual activity / %: 10.4

COMPOUND STRING: CCN(CC)CCNC(=O)c1c(C)[nH]c(/C=C2\C(=O)Nc3ccc(Cl)cc32)c1C
TESTED SYSTEM: UniProt Q14680
residual activity / %: 16.7

COMPOUND STRING: Cc1[nH]c(/C=C2\C(=O)Nc3ccc(S(=O)(=O)N(C)c4cccc(Cl)c4)cc32)c(C)c1C(=O)N1CCN(C)CC1
TESTED SYSTEM: UniProt Q14680
residual activity / %: 78.9

---

- TESTED SYSTEM: CSNK1D (human) (UniProt P48730)
- Sequence (P48730 whole entry, looked up): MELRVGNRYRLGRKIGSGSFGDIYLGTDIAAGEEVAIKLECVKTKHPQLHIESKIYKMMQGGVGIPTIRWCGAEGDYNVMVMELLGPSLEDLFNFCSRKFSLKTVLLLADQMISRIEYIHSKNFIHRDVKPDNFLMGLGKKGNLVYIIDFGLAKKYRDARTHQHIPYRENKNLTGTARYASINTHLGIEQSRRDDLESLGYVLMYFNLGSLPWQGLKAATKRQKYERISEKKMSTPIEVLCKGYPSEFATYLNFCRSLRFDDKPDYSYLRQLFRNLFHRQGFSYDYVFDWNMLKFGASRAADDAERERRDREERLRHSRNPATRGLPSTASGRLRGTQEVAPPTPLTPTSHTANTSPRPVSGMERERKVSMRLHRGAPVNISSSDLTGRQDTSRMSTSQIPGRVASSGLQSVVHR
- PROTOCOL NOTES: radiometric filter-binding kinase assay, Kinase HotSpot
- TEST SETTINGS: compound 0.5 µM; ATP 10 µM

COMPOUND STRING: CNC(=O)c1cc(Oc2ccc(NC(=O)Nc3ccc(Cl)c(C(F)(F)F)c3)cc2)ccn1
TESTED SYSTEM: CSNK1D (human) (UniProt P48730)
ENDPOINT UNIT: %
residual activity: 103
//
COMPOUND STRING: CCN(CC)C(=O)c1ccc(Nc2nc(OCC3CCCCC3)c3nc[nH]c3n2)cc1
TESTED SYSTEM: CSNK1D (human) (UniProt P48730)
ENDPOINT UNIT: %
residual activity: 102
//
COMPOUND STRING: CCN(CC)CCNC(=O)c1c(C)[nH]c(/C=C2\C(=O)Nc3ccc(F)cc32)c1C
TESTED SYSTEM: CSNK1D (human) (UniProt P48730)
ENDPOINT UNIT: %
residual activity: 31.8
//
COMPOUND STRING: O=C1NC(=O)/C(=C/c2ccc3c(c2)OC(F)(F)O3)S1
TESTED SYSTEM: CSNK1D (human) (UniProt P48730)
ENDPOINT UNIT: %
residual activity: 98.9
//
COMPOUND STRING: O=C1NC(=O)c2c1c1c3ccccc3n3c1c1c2c2ccccc2n1C1CCC3O1
TESTED SYSTEM: CSNK1D (human) (UniProt P48730)
ENDPOINT UNIT: %
residual activity: 93.8
//
COMPOUND STRING: CCN(CC)CCNC(=O)c1c(C)[nH]c(/C=C2\C(=O)Nc3ccc(Cl)cc32)c1C
TESTED SYSTEM: CSNK1D (human) (UniProt P48730)
ENDPOINT UNIT: %
residual activity: 49.7
//
COMPOUND STRING: CCOC(=O)c1c(C)[nH]c(/C=C2\C(=O)Nc3ccccc32)c1C
TESTED SYSTEM: CSNK1D (human) (UniProt P48730)
ENDPOINT UNIT: %
residual activity: 96.4
//
COMPOUND STRING: Cc1[nH]c(/C=C2\C(=O)Nc3ccc(S(=O)(=O)N(C)c4cccc(Cl)c4)cc32)c(C)c1C(=O)N1CCN(C)CC1
TESTED SYSTEM: CSNK1D (human) (UniProt P48730)
ENDPOINT UNIT: %
residual activity: 83.5
//
COMPOUND STRING: CC[n+]1c(/C=C/N(C)c2ccccc2)n(-c2ccccc2)c2ccc(-c3nc4ccccc4s3)cc21
TESTED SYSTEM: CSNK1D (human) (UniProt P48730)
ENDPOINT UNIT: %
residual activity: 104

---

- TESTED SYSTEM: FLT1 (human)
- PROTOCOL NOTES: radiometric filter-binding kinase assay, Kinase HotSpot
- TEST SETTINGS: compound 0.5 µM; ATP 10 µM
Reported residual activity by item:

COMPOUND STRING: O=S(=O)(c1cccc2cnccc12)N1CCCNCC1
residual activity: 90%

COMPOUND STRING: COc1cc2ncnc(Nc3cccc(Cl)c3)c2cc1OC
residual activity: 74.4%

COMPOUND STRING: Cc1ccc(Nc2nccc(N(C)c3ccc4c(C)n(C)nc4c3)n2)cc1S(N)(=O)=O
residual activity: 27.2%

COMPOUND STRING: Cc1ccc(NC2=CC(=O)c3sc(C)nc3C2=O)cc1
residual activity: 89.8%

COMPOUND STRING: Nc1ncnc2[nH]nc(Nc3ccc(F)cc3)c12
residual activity: 87.3%

COMPOUND STRING: CCN(CC)C(=O)c1ccc(Nc2nc(OCC3CCCCC3)c3nc[nH]c3n2)cc1
residual activity: 84%

COMPOUND STRING: COc1ccc2c(c[n+](C)c3c4cc5c(cc4ccc23)OCO5)c1OC
residual activity: 88.8%

COMPOUND STRING: c1ccc(-c2n[nH]c3c2oc2ccccc23)cc1
residual activity: 94.5%

COMPOUND STRING: CC#CC(=O)Nc1cc2c(Nc3ccc(F)c(Cl)c3)ncnc2cn1
residual activity: 100%

COMPOUND STRING: CCOC(=O)c1c(C)[nH]c(/C=C2\C(=O)Nc3ccccc32)c1C
residual activity: 79%

COMPOUND STRING: O=C(Nc1cccc(Nc2nccc(Nc3cccc(C(F)(F)F)c3)n2)c1)C1CC1
residual activity: 97%

---

- TESTED SYSTEM: VRK1 (human) (UniProt Q99986)
- Sequence (Q99986 whole entry, looked up): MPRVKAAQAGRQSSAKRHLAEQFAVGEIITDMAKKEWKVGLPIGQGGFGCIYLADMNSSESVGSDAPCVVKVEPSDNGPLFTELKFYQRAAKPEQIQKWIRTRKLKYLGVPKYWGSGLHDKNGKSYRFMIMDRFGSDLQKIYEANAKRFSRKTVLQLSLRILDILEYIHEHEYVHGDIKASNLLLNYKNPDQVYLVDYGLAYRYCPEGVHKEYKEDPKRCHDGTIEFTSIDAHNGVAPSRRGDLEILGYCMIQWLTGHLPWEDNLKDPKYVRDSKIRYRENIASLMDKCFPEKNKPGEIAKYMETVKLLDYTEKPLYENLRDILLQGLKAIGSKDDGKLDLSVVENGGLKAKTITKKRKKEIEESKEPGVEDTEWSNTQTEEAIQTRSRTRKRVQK
- PROTOCOL NOTES: radiometric filter-binding kinase assay, Kinase HotSpot
- TEST SETTINGS: compound 0.5 µM; ATP 10 µM

COMPOUND STRING: O=C1NC(=O)c2c1c1c3ccccc3n3c1c1c2c2ccccc2n1C1CCC3O1
TESTED SYSTEM: VRK1 (human) (UniProt Q99986)
residual activity / %: 90.2
//
COMPOUND STRING: CCN(CC)C(=O)c1ccc(Nc2nc(OCC3CCCCC3)c3nc[nH]c3n2)cc1
TESTED SYSTEM: VRK1 (human) (UniProt Q99986)
residual activity / %: 93.1
//
COMPOUND STRING: COc1ccc(COc2ccc(Cc3cnc(N)nc3N)cc2OC)cc1
TESTED SYSTEM: VRK1 (human) (UniProt Q99986)
residual activity / %: 91.4
//
COMPOUND STRING: Cc1ccc(Nc2nccc(N(C)c3ccc4c(C)n(C)nc4c3)n2)cc1S(N)(=O)=O
TESTED SYSTEM: VRK1 (human) (UniProt Q99986)
residual activity / %: 100

---

- TESTED SYSTEM: UniProt Q15139
- Sequence (Q15139 whole entry, looked up): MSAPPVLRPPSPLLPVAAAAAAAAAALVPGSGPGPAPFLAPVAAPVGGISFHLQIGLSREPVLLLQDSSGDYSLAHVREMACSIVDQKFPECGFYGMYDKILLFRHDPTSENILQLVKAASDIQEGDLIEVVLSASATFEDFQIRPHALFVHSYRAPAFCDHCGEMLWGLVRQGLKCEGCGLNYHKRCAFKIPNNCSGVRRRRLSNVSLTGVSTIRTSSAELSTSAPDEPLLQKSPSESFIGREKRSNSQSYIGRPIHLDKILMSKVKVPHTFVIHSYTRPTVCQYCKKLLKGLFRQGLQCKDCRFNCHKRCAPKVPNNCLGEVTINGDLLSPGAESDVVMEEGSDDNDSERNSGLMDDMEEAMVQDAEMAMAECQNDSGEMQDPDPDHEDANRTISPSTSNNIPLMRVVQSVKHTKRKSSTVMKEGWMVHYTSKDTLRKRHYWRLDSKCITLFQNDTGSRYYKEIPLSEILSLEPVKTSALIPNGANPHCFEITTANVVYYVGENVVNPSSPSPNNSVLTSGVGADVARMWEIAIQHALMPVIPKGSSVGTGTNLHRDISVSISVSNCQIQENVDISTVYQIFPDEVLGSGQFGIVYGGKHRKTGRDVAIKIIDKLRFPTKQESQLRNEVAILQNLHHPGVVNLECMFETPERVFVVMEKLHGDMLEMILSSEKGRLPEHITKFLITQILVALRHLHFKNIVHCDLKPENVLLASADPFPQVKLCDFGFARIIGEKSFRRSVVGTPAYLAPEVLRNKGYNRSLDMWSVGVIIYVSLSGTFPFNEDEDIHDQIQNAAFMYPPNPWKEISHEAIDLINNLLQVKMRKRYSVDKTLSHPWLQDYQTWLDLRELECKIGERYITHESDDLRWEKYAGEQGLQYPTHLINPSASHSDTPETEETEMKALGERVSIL
- PROTOCOL NOTES: radiometric filter-binding kinase assay, Kinase HotSpot
- TEST SETTINGS: compound 0.5 µM; ATP 10 µM
Hi! Just check whether residual activity is below 90%. Below gives Met, equal or above gives Not met.

COMPOUND STRING: CC(C)N(CCC(=O)c1ccc2ccccc2c1)Cc1ccccc1
CLASS ASSIGNMENT: Not met

COMPOUND STRING: N#C/C(=C(/N)Sc1ccc(N)cc1)c1ccccc1C(F)(F)F
CLASS ASSIGNMENT: Not met

COMPOUND STRING: O=C1NC(=O)c2c1c1c3ccccc3n3c1c1c2c2ccccc2n1C1CCC3O1
CLASS ASSIGNMENT: Met

COMPOUND STRING: c1ccc(-c2n[nH]c3c2oc2ccccc23)cc1
CLASS ASSIGNMENT: Met

---

- TESTED SYSTEM: STK39 (human)
- PROTOCOL NOTES: radiometric filter-binding kinase assay, Kinase HotSpot
- TEST SETTINGS: compound 0.5 µM; ATP 10 µM

COMPOUND STRING: N#CC(C#N)=C(N)/C(C#N)=C/c1ccc(O)cc1
ENDPOINT UNIT: %
residual activity: 90.3
--
COMPOUND STRING: COc1ccc2c(c[n+](C)c3c4cc5c(cc4ccc23)OCO5)c1OC
ENDPOINT UNIT: %
residual activity: 90.8
--
COMPOUND STRING: Nc1cccc(-c2cc3c(Oc4cccc(O)c4)ncnc3[nH]2)c1
ENDPOINT UNIT: %
residual activity: 119

---

- TESTED SYSTEM: EPHB3 (human)
- PROTOCOL NOTES: radiometric filter-binding kinase assay, Kinase HotSpot
- TEST SETTINGS: compound 0.5 µM; ATP 10 µM
READOUT: residual activity

COMPOUND STRING: COc1cc2ncnc(Nc3cccc(Cl)c3)c2cc1OC
RESULT: 99.1%
--
COMPOUND STRING: CCN(CC)CCNC(=O)c1c(C)[nH]c(/C=C2\C(=O)Nc3ccc(F)cc32)c1C
RESULT: 77.4%
--
COMPOUND STRING: Cc1ccc(S(=O)(=O)/C=C/C#N)cc1
RESULT: 104%
--
COMPOUND STRING: N#CC(C#N)=C(N)/C(C#N)=C/c1ccc(O)cc1
RESULT: 99.5%
--
COMPOUND STRING: CNC(=O)c1cc(Oc2ccc(NC(=O)Nc3ccc(Cl)c(C(F)(F)F)c3)cc2)ccn1
RESULT: 95.5%
--
COMPOUND STRING: N#C/C(=C(/N)Sc1ccc(N)cc1)c1ccccc1C(F)(F)F
RESULT: 96.7%
--
COMPOUND STRING: CNc1cc2c(Nc3cccc(Br)c3)ncnc2cn1
RESULT: 92.7%
--
COMPOUND STRING: Nc1ccc2ncnc(NCCc3ccc(Oc4ccccc4)cc3)c2c1
RESULT: 97.3%
--
COMPOUND STRING: COc1ccc2c(c[n+](C)c3c4cc5c(cc4ccc23)OCO5)c1OC
RESULT: 95.4%
--
COMPOUND STRING: c1ccc(-c2n[nH]c3c2oc2ccccc23)cc1
RESULT: 84.7%
--
COMPOUND STRING: O=C1NC(=O)c2c1c1c3ccccc3n3c1c1c2c2ccccc2n1C1CCC3O1
RESULT: 93.2%
